B1: 2K2A (parent)
chain: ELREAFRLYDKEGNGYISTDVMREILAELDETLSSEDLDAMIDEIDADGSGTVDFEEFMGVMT

Variants of: B1
Test: folding stability dG (cDNA display proteolysis); higher = more stable
Settings: PBS, room temperature
Measured Metric: folding stability dG (kcal/mol)
Lab book: enter the figure in kcal/mol, no units written.

Observe how each entry below is paired with its result.
Item Sequence	Measured Metric	Value Observed
ELREAFRLYDKEGNGYISTDVMREKLAELDETLSSEDLDAMIDEIDADGSGTVDFEEFMGVMT	folding stability dG	0.177
ELRDAFRLYDKEGNGYISTDVMREILAELDETLSSEDLDAMIDEIDADGSGTVDFEEFMGVMT	folding stability dG	2
ELREAFRLYDKEGNGYISTDVMREILAELDETLSSEDLDAMVDEIDADGSGTVDFEEFMGVMT	folding stability dG	1.34
ELREAFRLYDKEGNPYISTDVMREILAELDETLSSEDLDAMIDEIDADGSGTVDFEEFMGVMT	folding stability dG	0.347
ELREAFRLYDKEGNGYISTDVMCEILAELDETLSSEDLDAMIDEIDADGSGTVDFEEFMGVMT	folding stability dG	0.094
ELREAFRLYDKEGNGYISTDVMREFLAELDETLSSEDLDAMIDEIDADGSGTVDFEEFMGVMT	folding stability dG	1.53

[ask] Given the variant `ELREAFRLYDKEGNGYISTDVMREILAELDETLSSEHLDAMIDEIDADGSGTVDFEEFMGVMT` , what is its reported folding stability dG?
[reply] 1.4

[ask] Next variant: `ELREAFRLYDKEGNGYISTDVMREILAELDETLSSEDLDAMIDEIDADGSPTVDFEEFMGVMT`
[reply] -0.745

[ask] Next variant: `ELREAFRLYDKEGNGYISTDVMREILAELDETLSSGDLDAMIDEIDADGSGTVDFEEFMGVMT`
[reply] 1.54

[ask] Next variant: `ELREAFRLYDKEGNGYISTDDMREILAELDETLSSEDLDAMIDEIDADGSGTVDFEEFMGVMT`
[reply] 1.95
